Value source: patent US12606541B2

Listing: AC50 of selected compounds
# TEST TARGET: His6-TEV-PPARγ-(234-505) (Homo sapiens, UniProt P37231)
# Construct: The His6-TEV-PPARγ-(234-505) protein for assay was expressed and purified; TEV cleavage site (N); made in house
# Sequence (P37231 234-505): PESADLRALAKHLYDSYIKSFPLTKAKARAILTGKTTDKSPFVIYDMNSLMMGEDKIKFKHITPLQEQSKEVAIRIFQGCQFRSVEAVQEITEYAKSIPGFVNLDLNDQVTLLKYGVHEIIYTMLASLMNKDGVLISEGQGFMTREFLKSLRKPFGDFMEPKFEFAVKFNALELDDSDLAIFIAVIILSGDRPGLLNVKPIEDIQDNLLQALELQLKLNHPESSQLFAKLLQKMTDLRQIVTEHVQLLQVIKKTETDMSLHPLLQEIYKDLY
# ASSAY NOTES: TR-FRET Assay to Measure Co-R Peptide Recruitment to PPARγ
# Type: biochemical
# RECORDED CONDITIONS: Co-R peptide (SMRT-ID2) recruitment; top final concentration 20 μM; read-out: TR-FRET i-Ag; AC50
Kindly answer with a numeric value in nM, unit omitted.

Consider the following illustrative entries.
[[record]]
compound = "COc1cc(-c2cc(C(=O)N3CC[C@H](C(=O)Nc4cnn5ccc(Cl)nc45)CC34CC4)n[nH]2)c(F)cn1"
test_target = "His6-TEV-PPARγ-(234-505) (Homo sapiens, UniProt P37231)"
endpoint_name = "AC50"
reported = 5

[[record]]
compound = "COc1cc(-c2cc(C(=O)N3CCC(C(=O)NCc4nccnc4C4CC4CO)CC34CC4)n[nH]2)c(F)cn1 (mixture of isomers)"
test_target = "His6-TEV-PPARγ-(234-505) (Homo sapiens, UniProt P37231)"
endpoint_name = "AC50"
reported = 129

[[record]]
compound = "COc1cc(-c2cc(C(=O)N3CC[C@H](C(=O)NC(C)c4cn5c(n4)COCC5)CC34CC4)n[nH]2)c(F)cn1 (single isomer, unassigned) [Example 415-A]"
test_target = "His6-TEV-PPARγ-(234-505) (Homo sapiens, UniProt P37231)"
endpoint_name = "AC50"
reported = 88.1

[[record]]
compound = "O=C(NC1CCC(O)(C(F)(F)F)CC1)C1CCN(C(=O)c2cc(-c3cc(Cl)ncc3F)[nH]n2)C2(CC2)C1 (single isomer, unassigned) [Example 529-B]"
test_target = "His6-TEV-PPARγ-(234-505) (Homo sapiens, UniProt P37231)"
endpoint_name = "AC50"
reported = 1.4

[[record]]
compound = "CO[C@]1(C(F)(F)F)CC[C@H](NC(=O)[C@@H]2CCN(C(=O)c3cc(-c4cc(C)ncn4)[nH]n3)C3(CC3)C2)CC1 (single isomer, unassigned)"
test_target = "His6-TEV-PPARγ-(234-505) (Homo sapiens, UniProt P37231)"
endpoint_name = "AC50"
reported = 1320


Next, consider the following compound.
Prompt line: Dear colleague, I am looking for the recorded AC50 of the following compound: COc1cc(-c2cc(C(=O)N3CCC(C(=O)NC4CCC(O)(C(F)(F)F)C(O)C4)CC34CC4)n[nH]2)c(F)cn1 (mixture of isomers) [Example 474-B]
Response line: 4.6
